experiment: Metabolic stability test in liver microsomes; assay type: in vitro ADME; conditions: Mouse; +NADPH; 0.5 mg protein/mL; 37° C.
Measured parameter: Residue (%) after culturing for 30 min
Field: numeric (%). Do not append units.

// Residue (%) after culturing for 30 min lookup, key: `CCOC(=O)Cn1c(Cl)c(/C=N/NC(=O)c2cc3cc(C)ccc3o2)c2ccccc21`
2.50

Would you mind telling me what Residue (%) after culturing for 30 min value was observed for O=C1CC2(CCCC2)CC(=O)N1CCCCN1CCN(c2ncccn2)CC1 [Buspirone, buspirone, reference compound] ?
0.32

Returns the measured Residue (%) after culturing for 30 min for the input compound. Input: `CCOCCn1c(Cl)c(/C=N/NC(=O)c2cc3cc(OC)ccc3o2)c2cc(OC)ccc21`
4.82

Data request, read-out Residue (%) after culturing for 30 min, for `Cc1ccc2oc(C(=O)N/N=C/c3c(Cl)n(C)c4ccccc34)cc2c1`
2.84

Look at this compound and give its reported Residue (%) after culturing for 30 min. `CCOCCn1c(Cl)c(/C=N/NC(=O)c2cc3cc(C)ccc3o2)c2cc(OC)ccc21`
11.41

If you can, please state the reported Residue (%) after culturing for 30 min value of `CCOCCn1c(Cl)c(/C=N/NC(=O)c2cc3cc(C)ccc3o2)c2ccccc21` .
5.48

* * *

experiment: Metabolic stability test in liver microsomes; format: in vitro ADME; conditions: Human; +NADPH; 0.5 mg protein/mL; 37° C.
Please provide measured Residue (%) after culturing for 30 min for the entries that follow.
The answer is to be given in %; state only the numeric part.

Using the record for `CCOCCn1c(Cl)c(/C=N/NC(=O)c2cc3cc(C)ccc3o2)c2ccccc21` , report its Residue (%) after culturing for 30 min.
15.76

Quick one: Residue (%) after culturing for 30 min for `Cc1ccc2oc(C(=O)N/N=C/c3c(Cl)n(C)c4ccccc34)cc2c1` ?
8.69

Tell me the measured Residue (%) after culturing for 30 min of O=C1CC2(CCCC2)CC(=O)N1CCCCN1CCN(c2ncccn2)CC1 [Buspirone, buspirone, reference compound] , please.
2.21

Entry `CCOCCn1c(Cl)c(/C=N/NC(=O)c2cc3cc(C)ccc3o2)c2cc(OC)ccc21` : reported Residue (%) after culturing for 30 min = ?
24.11

Can you share its Residue (%) after culturing for 30 min? I mean this compound: `CCOCCn1c(Cl)c(/C=N/NC(=O)c2cc3cc(OC)ccc3o2)c2cc(OC)ccc21`
7.94

I'd like to know its Residue (%) after culturing for 30 min. The compound in question is `CCOC(=O)Cn1c(Cl)c(/C=N/NC(=O)c2cc3cc(C)ccc3o2)c2ccccc21`
12.34

* * *

system: MDA-MB-468; experiment: Anti-proliferative activity in other cancer cell lines (MTT); format: cell-based; settings: Homo sapiens, 96 h, Breast, 4 days
Measured parameter: IC50 (nM)
Hi! Could you send only the number? It should be in nM, unit omitted.

Item CCOCCn1c(Cl)c(/C=N/NC(=O)c2cc3cc(C)ccc3o2)c2ccccc21 [Example 4] has what recorded IC50?
690

* * *

Tested on: PC3
Test: Anti-proliferative activity in other cancer cell lines (MTT)
Assay type: cell-based
Settings: Homo sapiens, PC-3, 96 h, Prostate, 4 days
Protocol: HeLa cells (American Type Culture Collection: ATCC, USA), a human cervical cancer cell line, were seeded in a 96-well plate at 3×10^3 cells/well, and the cells were then treated with compounds of Examples or Comparative Example according to the present invention and grown for 2 days. Then, MTT (3-(4,5-dimethylthiazol-2-yl)-2,5-diphenyltetrazolium bromide) reagent was added at 10 μL/well. After 2 hours, absorbance was measured at “OD 450” and statistical values were obtained using Prism™6 program. […]
Measured parameter: pIC50
Keep it numeric: pIC50 is minus log10 of the concentration in mol/L.

Given `CCOCCn1c(Cl)c(/C=N/NC(=O)c2cc3cc(C)ccc3o2)c2ccccc21` , state its recorded pIC50.
6.15
